The values you see were collected from ChEMBL document CHEMBL4513216.

Tested on: Plasmodium falciparum
Test: Screen against P. falciparum Asexual Blood Stage (ABS), at 5uM
Format: functional, Dd2
Conditions: tested at 5 uM
In all, about 65,000 compounds went through this assay and about 2,100 (3.2%) showed an effect of 50% or more. The median lay at about -52%. Many of the other results were omitted from the sample, so strong results are more common in it than they were.
Measure Name: INHIBITION (%)
Just the number in %, nothing appended.

Before answering, review these 8 worked examples.
Cn1ccnc1CN1CCC2(CC1)CN(c1ccccn1)CCO2
-254
Cc1ncccc1NC(=O)c1nc2c(n1C)CCN(C(=O)C1CC1)C2
-117
Cc1ccc(CN2C[C@@H]3CCCO[C@@H]3[C@H](N(C)Cc3ccco3)C2)o1
39.7
COC(=O)c1ccc(S(=O)(=O)NC2CNC(=O)C2)cc1 (stereo not drawn)
-28.8
CN(Cc1ccco1)[C@@H]1CN(Cc2ccoc2)C[C@@H]2CCCO[C@@H]21
60.3
CCn1ncc2c1C(COCC1CC1)CN(c1ccc(C)nn1)C2 (stereo not drawn)
40.1
COCCN1CCN(Cc2cccc(C(=O)N(C)C)c2)CC1
7.48
CS(=O)(=O)NC[C@H]1Cn2c(-c3ccccc3)cnc2CO1
-21

The value of INHIBITION measured for the compound O=C1N(Cc2ccccc2F)CCCC12CCN(C1CCSCC1)C2 (stereo not drawn) turned out to be 34.2

The value of INHIBITION measured for the compound Cc1noc(C)c1CN(C)CCC(=O)N1CCc2sccc2C1 turned out to be -54.3
